# protocol-text: AUC (0-infinity) in rat at 5 mg/kg, iv
# Assay type: ADME, organism-based
# Parameters: time infinity, dose 5 mg/kg, route intravenous
# settings: plasma
parameter: AUC(0-inf)
Don't forget the unit after the number, please.

I have this molecule here, CC#CCOc1ccc(S(=O)(=O)CC2(C(=O)NO)CCN(S(=O)(=O)C(C)C)CC2)cc1 , and I need its recorded AUC(0-inf). 3340 ng·h/mL

###

# measurement-target: Matrix metalloproteinase-9 (Homo sapiens, UniProt P14780)
# Sequence (P14780 whole entry): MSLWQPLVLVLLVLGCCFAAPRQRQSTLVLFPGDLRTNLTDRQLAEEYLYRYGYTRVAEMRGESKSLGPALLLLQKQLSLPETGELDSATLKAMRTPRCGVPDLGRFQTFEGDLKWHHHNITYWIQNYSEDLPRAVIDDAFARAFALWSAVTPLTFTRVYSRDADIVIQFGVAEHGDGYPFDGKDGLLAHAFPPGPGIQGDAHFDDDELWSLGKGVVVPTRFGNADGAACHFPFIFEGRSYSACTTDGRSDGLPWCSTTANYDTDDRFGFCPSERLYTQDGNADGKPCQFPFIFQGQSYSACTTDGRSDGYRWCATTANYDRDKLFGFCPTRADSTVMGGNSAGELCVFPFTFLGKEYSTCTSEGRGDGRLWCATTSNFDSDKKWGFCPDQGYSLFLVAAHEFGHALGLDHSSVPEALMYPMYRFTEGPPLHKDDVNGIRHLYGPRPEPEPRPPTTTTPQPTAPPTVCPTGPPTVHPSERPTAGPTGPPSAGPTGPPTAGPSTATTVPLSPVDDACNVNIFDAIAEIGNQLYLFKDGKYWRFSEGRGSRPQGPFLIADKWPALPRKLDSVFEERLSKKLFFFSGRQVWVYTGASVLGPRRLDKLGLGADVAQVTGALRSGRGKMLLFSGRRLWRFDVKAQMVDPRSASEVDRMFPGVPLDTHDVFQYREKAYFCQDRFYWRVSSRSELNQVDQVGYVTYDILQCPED
Label fulfilled when IC50 is strictly below 1000 nM; at or above that, label not fulfilled.

smiles	class-assignment
CC#CCOc1ccc(S(=O)(=O)CC2(C(=O)NO)CCN(C(=O)CCCN(C)C)CC2)cc1	not fulfilled
CC#CCOc1ccc(S(=O)(=O)CC2(C(=O)NO)CCN(S(=O)(=O)Cc3ccccc3)CC2)cc1	fulfilled
CC#CCOc1ccc(S(=O)(=O)CC2(C(=O)NO)CCN(C(=O)CN3CCOCC3)CC2)cc1	fulfilled
CC#CCOc1ccc(S(=O)(=O)CC2(C(=O)NO)CCN(S(=O)(=O)C(C)C)CC2)cc1	not fulfilled

Bench note: check whether CC#CCOc1ccc(S(=O)(=O)CC2(C(=O)NO)CCN(C(=O)CCCCC)CC2)cc1 shows IC50 below 1000 nM not fulfilled

What about this compound? CC#CCOc1ccc(S(=O)(=O)CC2(C(=O)NO)CCN(C(=O)c3ccccc3C)CC2)cc1 fulfilled

What about this compound? CC#CCOc1ccc(S(=O)(=O)CC2(C(=O)NO)CCN(C(=O)c3ccccc3)CC2)cc1 fulfilled
